# Experimental System: rat serum albumin (RSA) (Rattus norvegicus)
# Construct: purchased Merck (Darmstadt, Germany)
# Sequence (P02770 25-608): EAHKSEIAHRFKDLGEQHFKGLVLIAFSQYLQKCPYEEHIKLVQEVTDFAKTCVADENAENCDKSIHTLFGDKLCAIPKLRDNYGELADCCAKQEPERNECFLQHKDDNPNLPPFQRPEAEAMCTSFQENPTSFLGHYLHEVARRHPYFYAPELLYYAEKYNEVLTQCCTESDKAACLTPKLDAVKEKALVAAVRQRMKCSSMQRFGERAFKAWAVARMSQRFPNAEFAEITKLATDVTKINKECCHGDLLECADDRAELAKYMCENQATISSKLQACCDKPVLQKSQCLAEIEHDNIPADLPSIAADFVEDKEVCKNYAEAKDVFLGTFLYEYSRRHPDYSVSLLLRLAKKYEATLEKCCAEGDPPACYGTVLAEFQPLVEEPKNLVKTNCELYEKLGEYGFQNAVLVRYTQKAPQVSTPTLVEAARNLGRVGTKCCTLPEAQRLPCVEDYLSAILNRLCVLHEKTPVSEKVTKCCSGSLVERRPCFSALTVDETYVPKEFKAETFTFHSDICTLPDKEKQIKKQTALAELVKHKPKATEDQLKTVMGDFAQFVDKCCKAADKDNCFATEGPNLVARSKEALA
# Assay Notes: Fluorescence quenching of rat serum albumin by mycotoxins
# Format: binding
Quantity: Kd (µM)
Note: unit µM is implicit; provide only the numeric part.

Given COc1cc(O)c2c(=O)oc3cc(O)cc(C)c3c2c1 , report its Kd on rat serum albumin (RSA) (Rattus norvegicus).
5.13

* * *

# Experimental System: bovine serum albumin (BSA) (Bos taurus, UniProt P02769)
# Construct: purchased Merck (Darmstadt, Germany)
# Sequence (P02769 25-607): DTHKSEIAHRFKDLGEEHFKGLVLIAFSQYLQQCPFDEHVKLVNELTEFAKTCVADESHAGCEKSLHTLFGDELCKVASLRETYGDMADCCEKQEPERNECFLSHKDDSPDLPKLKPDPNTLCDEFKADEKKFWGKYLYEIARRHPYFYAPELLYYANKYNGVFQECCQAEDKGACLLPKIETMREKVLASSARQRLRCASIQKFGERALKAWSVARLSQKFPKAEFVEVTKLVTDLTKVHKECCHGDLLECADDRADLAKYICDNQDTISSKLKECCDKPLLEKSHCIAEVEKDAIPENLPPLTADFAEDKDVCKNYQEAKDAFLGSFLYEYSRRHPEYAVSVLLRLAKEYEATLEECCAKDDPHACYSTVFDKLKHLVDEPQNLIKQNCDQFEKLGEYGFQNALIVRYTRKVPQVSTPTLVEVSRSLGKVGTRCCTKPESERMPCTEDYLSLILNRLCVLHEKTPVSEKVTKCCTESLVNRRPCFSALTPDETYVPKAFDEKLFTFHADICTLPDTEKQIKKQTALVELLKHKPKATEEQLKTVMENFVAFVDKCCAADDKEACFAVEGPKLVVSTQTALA
# Assay Notes: Fluorescence quenching of bovine serum albumin by mycotoxins
# Assay type: binding
Quantity: pKd
Notebook: values listed as pKd are -log10 of the concentration (mol/L).

Return pKd (reported value) for this compound: COc1cc(O)c2c(=O)oc3cc(O)cc(C)c3c2c1
5.04
